target: human CB-2 receptor (Homo sapiens, UniProt P34972); construct: expressed in transfected cells; host or cells: SK-N-MC cells, pcDNA3 CB-2 (human), semi-purified membranes; experiment: Binding assay, cannabinoid CB2 receptor ([3H]-CP-55,940 displacement); conditions: read-out: CB2 binding percent inhibition
Sequence (P34972 whole entry): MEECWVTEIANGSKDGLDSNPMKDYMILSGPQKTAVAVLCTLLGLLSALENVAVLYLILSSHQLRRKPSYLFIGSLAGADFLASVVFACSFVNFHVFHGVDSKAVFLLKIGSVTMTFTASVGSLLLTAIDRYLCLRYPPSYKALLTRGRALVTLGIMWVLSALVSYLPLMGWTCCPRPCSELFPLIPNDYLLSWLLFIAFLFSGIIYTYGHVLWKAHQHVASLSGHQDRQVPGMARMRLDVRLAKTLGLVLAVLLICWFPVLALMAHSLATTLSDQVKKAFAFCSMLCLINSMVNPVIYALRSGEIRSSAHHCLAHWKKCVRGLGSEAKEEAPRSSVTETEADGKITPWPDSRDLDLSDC
So I've got a bunch of molecules here, and I need their inhibition at 0.2 µM values.
Number in %, nothing else.

The reported inhibition at 0.2 µM value, human CB-2 receptor (Homo sapiens, UniProt P34972), for `C[C@@H](NC(=O)c1nn(-c2ccc(Cl)cc2)c2c1CSC/C2=C\c1ccc(F)cc1)c1ccccc1` reads 22

The reported inhibition at 0.2 µM value, human CB-2 receptor (Homo sapiens, UniProt P34972), for `C[C@@H](NC(=O)c1nn(-c2ccc(Cl)cc2)c2c1CS(=O)(=O)C/C2=C\c1ccc(F)cc1)c1ccccc1` reads 15

The reported inhibition at 0.2 µM value, human CB-2 receptor (Homo sapiens, UniProt P34972), for `C[C@@H](NC(=O)c1nn(-c2ccc(Cl)cc2Cl)c2c1CSC/C2=C\c1ccc(F)cc1)c1ccccn1` reads 19

The reported inhibition at 0.2 µM value, human CB-2 receptor (Homo sapiens, UniProt P34972), for `C[C@@H](NC(=O)c1nn(-c2ccc(Cl)cc2Cl)c2c1CSC/C2=C\c1ccc(Br)cc1)c1ccccc1` reads 26

###

target: human CB-2 receptor (Homo sapiens, UniProt P34972); construct: expressed in transfected cells; host or cells: SK-N-MC cells, pcDNA3 CB-2 (human), semi-purified membranes; assay: Binding assay, cannabinoid CB2 receptor ([3H]-CP-55,940 displacement); conditions: test concentration 0.2 μM (superscript a); read-out: CB2 binding percent inhibition
Binary classification by inhibition at 0.2 µM, with 20% as an inclusive lower bound for 1.0; all other cases are 0.0.

For this molecule, is measured inhibition at 0.2 µM 20% or higher? `C[C@H](NC(=O)c1nn(-c2ccc(Cl)cc2Cl)c2c1CSC/C2=C\c1ccc(F)cc1)c1ccccc1`
0.0

For this molecule, is measured inhibition at 0.2 µM 20% or higher? O=C(NN1CCCCC1)c1nn(-c2ccc(Cl)cc2Cl)c2c1C[S+]([O-])C/C2=C\c1ccc(F)cc1 (stereo not drawn)
0.0

For this molecule, is measured inhibition at 0.2 µM 20% or higher? `O=C(NN1CCCCC1)c1nn(-c2ccc(Cl)cc2Cl)c2c1CSC/C2=C\c1ccc(F)cc1`
1.0

For this molecule, is measured inhibition at 0.2 µM 20% or higher? `O=C(NN1CCCCC1)c1nn(-c2ccc(Cl)cc2)c2c1CSC/C2=C\c1ccc(F)cc1`
1.0

For this molecule, is measured inhibition at 0.2 µM 20% or higher? `C[C@@H](NC(=O)c1c2c(nn1-c1ccc(Cl)cc1Cl)/C(=C/c1ccc(F)cc1)CS(=O)(=O)C2)C1CCCCC1`
0.0

For this molecule, is measured inhibition at 0.2 µM 20% or higher? O=C(NNc1ccc(Cl)cc1Cl)c1nn(-c2ccc(Cl)cc2Cl)c2c1C[S+]([O-])C/C2=C\c1ccc(F)cc1 (stereo not drawn)
0.0

For this molecule, is measured inhibition at 0.2 µM 20% or higher? `C[C@H](NC(=O)c1nn(-c2ccc(Cl)cc2Cl)c2c1CS(=O)(=O)C/C2=C\c1ccc(F)cc1)c1ccccc1`
0.0

For this molecule, is measured inhibition at 0.2 µM 20% or higher? `C[C@H](NC(=O)c1c2c(nn1-c1ccc(Cl)cc1Cl)/C(=C/c1ccc(F)cc1)CSC2)C1CCCCC1`
0.0

For this molecule, is measured inhibition at 0.2 µM 20% or higher? O=C(NCc1ccccn1)c1nn(-c2ccc(Cl)cc2Cl)c2c1C[S+]([O-])C/C2=C\c1ccc(F)cc1 (stereo not drawn)
0.0

For this molecule, is measured inhibition at 0.2 µM 20% or higher? O=S(=O)(/C=C/c1nn(-c2ccc(F)cc2F)c2c1CSCC2Cc1cccc(F)c1)NN1CCOCC1 (stereo not drawn)
0.0

For this molecule, is measured inhibition at 0.2 µM 20% or higher? C[C@H](NS(=O)(=O)/C=C/c1nn(-c2ccc(F)cc2F)c2c1CSCC2Cc1cccc(F)c1)c1ccccc1 (stereo partly drawn)
0.0

For this molecule, is measured inhibition at 0.2 µM 20% or higher? `O=C(NN1CCN(CCO)CC1)c1nn(-c2ccc(Cl)cc2Cl)c2c1CS(=O)(=O)C/C2=C\c1ccc(F)cc1`
0.0

For this molecule, is measured inhibition at 0.2 µM 20% or higher? `O=C(N[C@@H]1CCCC[C@H]1O)c1nn(-c2ccc(Cl)cc2Cl)c2c1CSC/C2=C\c1ccc(F)cc1`
1.0

For this molecule, is measured inhibition at 0.2 µM 20% or higher? `O=C(NCc1ccccn1)c1nn(-c2ccc(Cl)cc2Cl)c2c1CSC/C2=C\c1ccc(F)cc1`
0.0
